The entries below are paired with their reported % inhibition (of survival) = (100% - % survival).
target: CSF-1R of cynomolgous monocytes (cynomolgous); test: cell-based or functional assay
Measurement Label: % inhibition (of survival) = (100% - % survival)

# Binder, Endpoint Result
measured = [
    ("Mab 2E10 (antibody, V domains shown, Murine monoclonal antibody from a hybridoma) VH: QVQLKESGPGLVAPSKSLSITCTVSGSSLDSFDISWIRQSPGKGLEWLGVIWTGGGTNYNSGFMSRLRITKDNSKSQVLLKMNSLQSDDTAIYYCVRDPRLYFDVWGAGTTVTVSS VL: NIVMTQSPKSMSMSVGERVTLSCKASEDVVTYVSWYQQKPDQSPKLLIYGASNRYTGVPDRFTGSGSATDFTLTISSVQAEDLADYYCGQTFSYPTFGTGTKLEIK", "83%"),
    ("Mab 2F11 (antibody, V domains shown, Murine monoclonal antibody from a hybridoma; also called muMab 2F11) VH: QVQLKESGPGLVAPSQSLSITCTVSGFSLTTYDISWIRQSPGKGLEWLGVIWTDGGTNYNSPFMSRLSIRKDNSKSQVFLKMNRLQTDDTAIYYCVRDQRLYFDVWGAGTTVTVSS VL: NIVMTQSPKSMSMSVGERVTLNCKASEDVNTYVSWYQQQPEQSPKLLIYGASNRYTGVPDRFTGGGSTTDFTLTISSVQAEDLADYFCGQSFSYPTFGTGTKLEIK", "96%"),
    ("Mab 2H7 (antibody, V domains shown, Murine monoclonal antibody from a hybridoma) VH: QVQLKESGPGLVAPSKSLSITCTVSGSSLDSFDISWIRQPPGKGLEWLGVIWTGGGTNYNSGFMSRLRISKDNSKSQVFLKMSSLQSDDTAIYYCVRDPRLYFDVWGAGTTVTVSS VL: NIVMTQSPKSMSMSVGERVTLSCKASEDVVTYVSWYQQKPEQSPKLLIYGASNRYTGVPDRFTGSGSATDFTLTISSIQAEDLADYYCGQTFSYPTFGTGTKLEIK", "92%"),
    ("Mab 1G10 (antibody, V domains shown, Murine monoclonal antibody from a hybridoma) VH: RVQLKESGPGLVAPSQSLSITCTVSGFSLTSYDISWIRQSPGKGLEWLGVIWSGGGTNYNSPFMSRLRISKDDSRSQVFLKVNRLQTDDTAIYYCVRDLRLYFDVWGAGTTVTVSS VL: KIVMTQSPKSMSVSVGERVSLSCKASEDVGTYVSWYQQKPEQSPKLLIYGSSNRYTGVPDRFTGSGSATDFTLTISSVQAEDLADYSCGQSFTYPTFGTGTKLEIK", "98%"),
]
